PROTOCOL SUMMARY: A549 lung cancer cell viability effects, profiling panel, resazurin fluorescence, 24 h, PK04 Diversity Set (AID 1171); further: test concentration not given here
TEST CONTEXT: higher = more signal, called active from +8 up or from −8 down
MEASURED ATTRIBUTE: z-score
Just the number, please, no unit attached.

See these solved cases before continuing.
CC1CC/C=C\[C@H]2OC34C=CCN(C(C)(C)C)C(=O)[C@H]3N(C(C)CO)C(=O)[C@@H]4C2C(=O)O1 (stereo partly drawn)    -0.388
C=CCOC(=O)[C@@H]1[C@H]2C(=O)O[C@H](c3ccccc3)[C@H](c3ccccc3)N2[C@H](c2ccc(OCCOC(=O)[C@@H]3C[C@@H]4C(=O)NCC(=O)N4[C@@H]3c3ccc(O)cc3)cc2)[C@@]12C(=O)Nc1ccc(I)cc12    0.994
[N-]=[N+]=Nc1ccccc1[C@H]1OC(c2ccc(OCCCO)cc2)=N[C@@]1(CCS(=O)(=O)c1ccccc1)C(N)=O    0.985
CCOC(=O)C1=C[C@@H](C(C)(C)C)N(S(=O)(=O)c2ccc(C)cc2)[C@H]1c1ccc(F)cc1    0.627

Item CN1C(=O)C2C=CC(C(O)C3CC=CCC3)N(N(c3ccccc3)c3ccccc3)C2C1=O (stereo not drawn) has what recorded z-score? -0.501

# query: z-score of entry "COC(=O)[C@@]1(Cc2ccc(OC)cc2)[C@H]2c3cc(C(=O)N4CCCC4)n(Cc4ccc(C)c(F)c4F)c3C[C@H]2CN1C(=O)c1ccccc1" -0.268

z-score for "C=CCNC(=O)[C@@H]1[C@H]2C(=O)O[C@H](c3ccccc3)[C@H](c3ccccc3)N2[C@H](c2ccc(O)cc2)[C@@]12C(=O)Nc1ccc(C#CCNC(N)=O)cc12" ? 0.552

Given the entry "[N-]=[N+]=NCc1ccccc1[C@@H]1OC(c2ccc(OCCCO)cc2)=N[C@]1(Cc1ccccc1)C(N)=O" , report its measured z-score. 0.479

For the molecule shown here, "Cc1ccc(S[C@]2(C(=O)NC3CC3)CC(=O)N(Cc3ccccc3)[C@@H]2c2ccc(CO)cc2I)cc1" , give the reported z-score. 0.618

====

SYSTEM: NADPH oxidase 4 (Homo sapiens) (UniProt Q9NPH5)
Sequence (Q9NPH5 whole entry, looked up): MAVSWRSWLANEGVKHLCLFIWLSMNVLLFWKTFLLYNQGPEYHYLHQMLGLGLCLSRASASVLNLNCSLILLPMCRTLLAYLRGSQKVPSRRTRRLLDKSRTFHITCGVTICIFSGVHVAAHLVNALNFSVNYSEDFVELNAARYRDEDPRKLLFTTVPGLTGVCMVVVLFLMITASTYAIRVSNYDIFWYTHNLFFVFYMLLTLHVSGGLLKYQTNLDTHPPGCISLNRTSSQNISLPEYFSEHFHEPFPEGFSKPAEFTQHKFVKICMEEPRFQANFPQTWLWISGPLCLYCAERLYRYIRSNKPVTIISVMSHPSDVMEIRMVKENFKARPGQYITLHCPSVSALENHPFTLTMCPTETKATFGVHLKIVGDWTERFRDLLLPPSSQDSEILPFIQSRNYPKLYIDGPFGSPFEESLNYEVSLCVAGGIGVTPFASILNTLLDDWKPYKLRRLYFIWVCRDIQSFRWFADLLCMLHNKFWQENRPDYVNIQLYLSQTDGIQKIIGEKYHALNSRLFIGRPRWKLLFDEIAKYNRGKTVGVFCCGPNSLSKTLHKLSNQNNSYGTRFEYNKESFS
PROTOCOL SUMMARY: NOX4-dependent H2O2 signal modulators, primary screen, NOX inhibitor project, cell-based, HEK293-NOX4, tetracycline-induced, Amplex Red fluorescence (AID 1160)
TEST CONTEXT: 45 min, higher = more signal, called active from +8 up or from −8 down
Recorded measurements of z-score, one per entry
Answer field: number only, no words.

Solved entries (count: 6):
CC(C)C[C@@H]1NC(=O)[C@@H]2C[C@H](C(=O)O)[C@H](c3cccc(OCCO)c3)N2C1=O    0.663
C=CCOC(=O)[C@H]1[C@@H]2C(=O)O[C@@H](c3ccccc3)[C@@H](c3ccccc3)N2[C@@H](c2ccc(OCCOC(=O)[C@@H]3C[C@@H]4C(=O)N[C@@H](CCCCNC(C)=O)C(=O)N4[C@@H]3c3ccc(O)cc3)cc2)[C@]12C(=O)Nc1ccccc12    0.962
C=CCOC(=O)[C@@H]1[C@H]2C(=O)O[C@H](c3ccccc3)[C@H](c3ccccc3)N2[C@H](c2ccc(OCCOC(=O)[C@H]3C[C@H]4C(=O)N5CCC[C@H]5C(=O)N4[C@H]3c3ccc(O)cc3)cc2)[C@@]12C(=O)Nc1ccc(I)cc12    1.1
CC(C)C[C@@H]1NC(=O)[C@H](C(C)C)NC(=O)[C@@]23C(=O)N[C@@H](Cc4ccccc4)C2[C@H](C)[C@@]2(C)O[C@H]2C3/C=C/CC/C=C/CNC1=O (some centres not stated)    0.338
O=C(OCc1ccccc1)C1=CCC2c3[nH]c4ccccc4c3C(=O)C1N2S(=O)(=O)c1ccccc1[N+](=O)[O-] (configuration not stated)    -0.294
CCCC[C@H]1OB(O)C[C@H]2C1=C(COC)C[C@H]1C(=O)N(C)C(=O)[C@H]12    0.221

Okay, now this molecule:
z-score for "COc1cccc(-c2cccc(=O)o2)c1" ? -1.15

Data provenance: PubChem BioAssay
